All values here come from patent US5084082A.

- Tested on: Williams 82
- experiment: Test A postemergence herbicide spray, greenhouse pots
- Type: in vivo, soybean
- condition-summary: WM 82, 32 g/ha postemergence
assay-endpoint: mean % injury
Answer as a quantity: numeral, then unit.

Examples with their reported mean % injury follow.
• CCS(=O)(=O)c1cccnc1S(=O)(=O)NC(=O)Nc1nc(OC)cc(OC)n1 [Compound 7] = 93%
• COC(=O)c1sccc1S(=O)(=O)NC(=O)Nc1nc(C)nc(OC)n1 [Compound 2] = 63%
• COC(=O)c1cccnc1S(=O)(=O)NC(=O)Nc1nc(OC)cc(OC)n1 [Compound 8] = 95%

Kindly review the next molecule as well.
Simply: COC(=O)c1ccccc1S(=O)(=O)NC(=O)N(C)c1nc(C)nc(OC)n1 [Compound 3] , Williams 82, mean % injury = 95%
